Here the recorded log10 of half-life is given for each entry.
Tested on: human liver microsomes, metabolic stability half-life
protocol_summary: NCATS Human Liver Microsomal (HLM) Stability Profiling
condition_notes: higher = more stable; screened at 1 µM (by protocol)
value_kind: log10 of half-life (log10 of the value in min)

{"columns": ["compound", "numeric_readout"],
 "data": [
  ["CCN(CC)C(=O)c1ccc(Nc2nc(OCC3CCCCC3)c3[nH]cnc3n2)cc1", 0.95],
  ["CCOc1ccc(S(=O)(=O)NCCc2sc(-c3ccc(C)cc3)nc2C)cc1", 0.61],
  ["CC1(COc2ccc3c(c2)ncn3-c2ccc3cccc(N4CCC(N)CC4)c3n2)COC1", 1.88],
  ["Cc1cccc(N2CCN(C(=O)c3cccn3-c3nnc(N4CCCCC4)s3)CC2)c1C", 0.50],
  ["COc1ccc(-c2ccc3cc(C(=O)O)ccc3c2)cc1C12CC3CC(CC(C3)C1)C2", 1.66],
  ["CC(CN1c2ccccc2Sc2ccccc21)N(C)C (configuration not stated)", 1.51],
  ["NC(=O)N1CCC(CC(=O)N2CCC(C3c4ncc(Br)cc4CCc4cc(Cl)cc(Br)c43)CC2)CC1 (configuration not stated)", 0.74],
  ["Cc1cc(C)cc(-c2cnc3cc(Cl)c(-c4cccc(O)c4)cc3c2OCCCN)c1", 1.40],
  ["O=Nc1c(-c2c(O)[nH]c3cc(Br)ccc23)[nH]c2ccccc12", 1.28],
  ["Nc1ccc(N=Nc2ccccc2)c(N)n1", 0.87],
  ["CC(C)NC(=O)COc1cccc(-c2nc(Nc3ccc4[nH]ncc4c3)c3ccccc3n2)c1", 1.37]
]}

---

Tested on: human liver microsomes, metabolic stability half-life
protocol_summary: NCATS Human Liver Microsomal (HLM) Stability Profiling
condition_notes: higher = more stable; screened at 1 µM (by protocol)
Non-standard residues stand in square brackets, D forms with d. Residues, ends and D or L forms follow the SMILES beside them. *: point of attachment. Sta = CC(C)C[C@H](N)[C@@H](O)CC(=O)O; Isovaleryl = CC(C)CC(=O)*
Reported half-life is given for each of the following compounds.

{"columns": ["compound", "system_under_test", "readout_qualifier", "half-life (h)"],
 "data": [
  ["C[C@@H](N)c1ccc(C(=O)Nc2ccnc3[nH]ccc23)cc1", "human liver microsomes, metabolic stability half-life", ">", 2],
  ["COc1cc2nc(Cl)nc(N)c2cc1OC", "human liver microsomes, metabolic stability half-life", "=", 1.74],
  ["CC(C)CN1C(=O)c2cccn2CC1C(=O)N1CCN(C)CC1 (centres undefined)", "human liver microsomes, metabolic stability half-life", "=", 1.05],
  ["CC(C)CC(=O)N[C@H](C(=O)N[C@H](C(=O)N[C@@H](CC(C)C)[C@@H](O)CC(=O)N[C@@H](C)C(=O)N[C@@H](CC(C)C)[C@@H](O)CC(=O)O)C(C)C)C(C)C (Isovaleryl-VV[Sta]A[Sta]-OH)", "human liver microsomes, metabolic stability half-life", ">", 2]
]}

---

Tested on: human liver microsomes, metabolic stability half-life
protocol_summary: NCATS Human Liver Microsomal (HLM) Stability Profiling
condition_notes: higher = more stable; screened at 1 µM (by protocol)
value_kind: half-life (min)

{"columns": ["compound", "system_under_test", "readout_qualifier", "numeric_readout"],
 "data": [
  ["CN(C)c1cccc(Oc2cnc(Nc3cccc(O)c3)nc2)c1", "human liver microsomes, metabolic stability half-life", "=", 21.9],
  ["CC1=CC(=O)c2ccccc2C1=O", "human liver microsomes, metabolic stability half-life", "=", 11.4],
  ["C=CC1=C(C(=O)O)N2C(=O)[C@@H](NC(=O)/C(=N\\OCC(=O)O)c3csc(N)n3)[C@H]2SC1", "human liver microsomes, metabolic stability half-life", ">", 120],
  ["CC#C[C@@H](CC(=O)O)c1ccc(OCc2ccc(CN3CCC4(C=Cc5ccccc54)CC3)s2)cc1", "human liver microsomes, metabolic stability half-life", "=", 25.1],
  ["O=C(N[C@H]1CN2CCC1CC2)c1cc2cccc(Cl)c2s1", "human liver microsomes, metabolic stability half-life", ">", 120],
  ["CCC(C(=O)O)c1ccc(N2Cc3ccccc3C2=O)cc1 (configuration not stated)", "human liver microsomes, metabolic stability half-life", ">", 120],
  ["O=C(O)Cc1ccc2oc(-c3ccc(NC(=O)/C=C/c4ccc(Br)cc4)c(F)c3)nc2c1", "human liver microsomes, metabolic stability half-life", ">", 120],
  ["CC(C)NC[C@H](O)c1ccc2ccccc2c1", "human liver microsomes, metabolic stability half-life", "=", 18.8],
  ["Cc1cc(C(C)(C)C)c(O)c(C(C)(C)C)c1", "human liver microsomes, metabolic stability half-life", ">", 120],
  ["O=C(Cn1cc(SCc2cccc(Cl)c2)c2ccccc21)N1CCCCC1", "human liver microsomes, metabolic stability half-life", "=", 0.84],
  ["O=C(Cn1ncc2c([nH]c3ccccc32)c1=O)NCCCN1CCN(c2ccccc2)CC1", "human liver microsomes, metabolic stability half-life", ">", 120],
  ["CC1(C)OC[C@H](NC(=O)Nc2ccc(Br)cc2Br)[C@H](c2ccccc2)O1", "human liver microsomes, metabolic stability half-life", "=", 1],
  ["C#CCN(C)CCCOc1ccc(Cl)cc1Cl", "human liver microsomes, metabolic stability half-life", "=", 3.52],
  ["Cc1cccc(C)c1NC(=O)[C@H]1CCCCN1C", "human liver microsomes, metabolic stability half-life", ">", 120],
  ["Cc1c(Cl)ccc2sc(N3CCN(C(=O)CS(=O)(=O)c4ccccc4)CC3)nc12", "human liver microsomes, metabolic stability half-life", "=", 61.2],
  ["Cc1ccc(NC(=O)c2cccc(N(C)C)c2)cc1NC(=O)c1ccc(O)cc1", "human liver microsomes, metabolic stability half-life", "=", 18.9],
  ["CN(C(=O)C(c1ccccc1)c1ccccc1)[C@H](CN1CC[C@H](O)C1)c1ccccc1", "human liver microsomes, metabolic stability half-life", "=", 9.29],
  ["CCOC(=O)Cn1cccc1-c1nc(-c2ccc(OC)cc2)c(-c2ccc(OC)cc2)s1", "human liver microsomes, metabolic stability half-life", "=", 0.96],
  ["Cc1cc(Nc2nc(N[C@@H](C)c3ccc(F)cc3)c(C#N)cc2F)n[nH]1", "human liver microsomes, metabolic stability half-life", ">", 120],
  ["O=C(C1CCCCC1)N1CC(=O)N2CCCc3ccccc3C2C1 (configuration not stated)", "human liver microsomes, metabolic stability half-life", "=", 20.8],
  ["Nc1ncnc2c1ncn2[C@@H]1O[C@H](CO)[C@@H](O)[C@@H]1O", "human liver microsomes, metabolic stability half-life", ">", 120],
  ["CCOc1cc(CNC(=O)c2ccc(C)c(NC(=O)c3nsc4ccccc34)c2)ccc1OC", "human liver microsomes, metabolic stability half-life", "=", 7.12]
]}

---

Parameter half-life: see the listing below.
Tested on: human liver microsomes, metabolic stability half-life
protocol_summary: NCATS Human Liver Microsomal (HLM) Stability Profiling
condition_notes: higher = more stable; screened at 1 µM (by protocol)
Method: Assay submitter (PI): Dr. Pranav Shah NIH Center for Advancing Translational Sciences Pharmacokinetic issues were the leading cause of drug attrition, accounting for approximately 40% of all cases before the turn of the century. […] The substrate depletion method, also called the in vitro t1/2 method was used to analyze test compounds. […] Sample quantification and analysis was performed using a previously described method (Shah et al., 2016, Siramshetty et al., 2020). […]
value_kind: half-life (min)

{"columns": ["compound", "value_kind", "readout_qualifier", "numeric_readout"],
 "data": [
  ["CC(C)(O)c1ccc2c(c1)ncn2-c1cccc(-c2ccccc2C#N)c1", "half-life", ">", 120],
  ["C[C@H]1CN(CC[C@H](O)C2CCCCC2)CC[C@@]1(C)c1cccc(O)c1", "half-life", "=", 6.75],
  ["N#C/C(=C1\\SCC(c2ccccc2Cl)S1)n1ccnc1 (stereo not drawn)", "half-life", "=", 86.2],
  ["COc1cc(NS(=O)(=O)c2ccc(N)cc2)nc(OC)n1", "half-life", ">", 120],
  ["CNS(=O)(=O)c1ccc(Cc2c(-c3cccc(-c4ccccc4)c3)[nH]n(-c3nc(C(=O)O)cs3)c2=O)cc1", "half-life", ">", 120],
  ["Cn1cc(-c2ccc3nnc(Sc4ccc5nn(C)cc5c4)n3n2)cn1", "half-life", ">", 120],
  ["O[C@@H]1CO[C@H]2[C@@H]1OC[C@@H]2O", "half-life", ">", 120],
  ["NC(N)=NS(=O)(=O)c1ccc(N)cc1", "half-life", "=", 78.3],
  ["COc1cccc(OC)c1-c1nc(C(=O)N[C@@H](CC(C)C)C(=O)O)cn1-c1ccnc2cc(Cl)ccc12", "half-life", ">", 120],
  ["NC(=O)[C@H]1CCS[C@@H]2C[C@]3(CCCN3C(=O)Cc3ccc(NC(=O)COc4ccc(Cl)cc4Cl)cc3)C(=O)N12", "half-life", "=", 7.68],
  ["COc1ccc(CCN(C)CCC[C@@](C#N)(c2cc(OC)c(OC)c(OC)c2)C(C)C)cc1OC", "half-life", "=", 7.68],
  ["Cc1ccc(O)cc1Nc1ccnc(Nc2cccc(C(N)=O)c2)n1", "half-life", "=", 86.5],
  ["CC1(C)CC(=O)c2c(C(F)(F)F)nn(-c3ccc(C(N)=O)c(NC4CCC(OC(=O)CN)CC4)c3)c2C1 (stereo not drawn)", "half-life", "=", 1.57],
  ["CCc1nc(C(N)=O)c(Nc2ccc(N3CCC(N4CCN(C)CC4)CC3)c(OC)c2)nc1NC1CCOCC1", "half-life", ">", 120],
  ["NC(=O)c1c(OCc2c(F)cc(Br)cc2F)nsc1NC(=O)NCCCCN1CCCC1", "half-life", ">", 120],
  ["c1ccc(-c2cnc(Nc3ccc(OCCN4CCCC4)cc3)s2)cc1", "half-life", "=", 103],
  ["O=C(CCBr)N1CCN(C(=O)CCBr)CC1", "half-life", ">", 120],
  ["CC(C)(C)c1cnc(CSc2cnc(NC(=O)C3CCNCC3)s2)o1", "half-life", ">", 120],
  ["NCCc1ccc(O)cc1", "half-life", ">", 120],
  ["COc1ccc(CNC(=O)C2CCCN(c3nnc(C)c4c(C)n(-c5ccc(C)cc5)nc34)C2)cc1 (stereo not drawn)", "half-life", "=", 5.53],
  ["CS(=O)(=O)c1ccc([C@@H](O)[C@@H](CO)NC(=O)C(Cl)Cl)cc1", "half-life", ">", 120],
  ["O=C1CC[C@H](C(=O)N2CCCCC2)N1", "half-life", ">", 120],
  ["N#Cc1cccc(CN2CC(COc3ccccc3)C3(C2)CN(c2ccccc2)C3)c1 (stereo not drawn)", "half-life", "=", 3.65],
  ["CCOc1ccccc1OCCN[C@H](C)Cc1ccc(OC)c(S(N)(=O)=O)c1", "half-life", ">", 120],
  ["CC(C)NC(=O)c1ccc(C=O)cc1", "half-life", "=", 3.1],
  ["CNP(=O)(OC)Oc1ccc(C(C)(C)C)cc1Cl (stereo not drawn)", "half-life", "=", 47.5],
  ["CCOc1cc(OCC)c(C(=O)CCC(=O)O)cc1OCC", "half-life", ">", 120],
  ["CC1(c2ccccc2)N(Cc2ccccc2)C(=O)OC12CCN(Cc1cccc(C#N)c1)CC2 (stereo not drawn)", "half-life", "=", 2.04],
  ["O=C(CO)N1CCC(c2[nH]nc(-c3ccc(Cl)cc3)c2-c2ccncn2)CC1", "half-life", ">", 120],
  ["C=C1CCN([C@H](C)[C@](O)(Cn2cncn2)c2ccc(F)cc2F)CC1", "half-life", "=", 10],
  ["CN(C)CCC[C@@]1(c2ccc(F)cc2)OCc2cc(C#N)ccc21", "half-life", ">", 120],
  ["CC(=O)OCC(CCn1cnc2cnc(N)nc21)COC(C)=O", "half-life", "=", 2.34],
  ["CCOC(=O)c1cc(C#N)c(N2CCC(C(=O)NS(=O)(=O)Cc3ccccc3)CC2)nc1C", "half-life", "=", 43.7],
  ["COc1ccc(CN2CCC3(CC(C)=NO3)C2)cc1 (stereo not drawn)", "half-life", "=", 19.2],
  ["N#Cc1ccc(-c2ccc(S(=O)(=O)Nc3cccc(N)n3)cc2)cc1", "half-life", ">", 120],
  ["CCOCc1cc(CN2CCN(c3cccc(C(F)(F)F)c3)CC2)c(O)c2ncccc12", "half-life", "=", 12.6],
  ["Cc1c(C(=O)Nc2cccc(C(F)(F)F)c2)cc(-c2ccccc2)n1CCCN1CCOCC1", "half-life", "=", 8.06],
  ["O=C1N(c2ccccc2)c2ccccc2C1(Cc1ccncc1)Cc1ccncc1", "half-life", "=", 1.71],
  ["Clc1ccccc1-c1nc(-c2ccncc2)no1", "half-life", "=", 35.8],
  ["COc1cc(Nc2nc3ccccc3nc2NS(=O)(=O)c2ccc(NC(=O)c3ccc(OC)c(C)c3)cc2)cc(OC)c1", "half-life", ">", 120],
  ["Fc1ccc(C2CCNC[C@H]2COc2ccc3c(c2)OCO3)cc1 (stereo partly drawn)", "half-life", "=", 28.9],
  ["COCCc1ccc(OC[C@H](O)CNC(C)C)cc1", "half-life", ">", 120],
  ["CC(C)(C)c1ccc(C(=O)Nc2cc(Cl)c(Br)cc2C(=O)O)cc1", "half-life", "=", 6.17]
]}
